biological target: AChE from electric eel (Electrophorus electricus); construct: purchased Sigma (St. Louis, USA); experiment: Quantitative colorimetric microplate assay based on Ellman's method for AChE inhibitory activity; assay type: biochemical; conditions: n=3, same values given in molar unit, read-out: IC50, inhibition of AchE (converted)
Sequence (O42275 24-633): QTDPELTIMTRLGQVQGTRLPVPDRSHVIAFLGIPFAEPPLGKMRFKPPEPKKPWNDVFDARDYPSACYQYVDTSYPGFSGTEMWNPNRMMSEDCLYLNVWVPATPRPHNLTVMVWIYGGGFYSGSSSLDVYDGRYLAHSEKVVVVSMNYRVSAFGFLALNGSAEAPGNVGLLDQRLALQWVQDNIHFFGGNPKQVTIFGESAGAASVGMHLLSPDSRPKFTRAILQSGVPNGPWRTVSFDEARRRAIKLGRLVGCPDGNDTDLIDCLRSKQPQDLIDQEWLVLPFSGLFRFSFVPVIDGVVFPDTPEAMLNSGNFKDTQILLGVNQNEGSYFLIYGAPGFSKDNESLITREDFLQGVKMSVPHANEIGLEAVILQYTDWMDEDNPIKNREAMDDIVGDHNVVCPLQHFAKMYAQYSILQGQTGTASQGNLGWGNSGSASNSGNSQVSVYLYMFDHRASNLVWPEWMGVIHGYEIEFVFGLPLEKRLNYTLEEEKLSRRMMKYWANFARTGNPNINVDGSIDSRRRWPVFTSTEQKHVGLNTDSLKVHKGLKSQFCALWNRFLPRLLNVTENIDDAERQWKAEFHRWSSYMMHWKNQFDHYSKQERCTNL
Reported IC50 values are given for each entry in this list.
Measure: IC50 (µM)

Molecule	Measure	Unit Name	Assay Value
C=C[C@]1(C)CC[C@H]([C@@H](C)C(=O)[C@H](O)C=C(C)C)C12C(=O)Oc1cc(OC)ccc1C2=O (stereo partly shown)	IC50	µM	237
C=C[C@]1(C)CC[C@@H](C(C)C(O)C(=O)C=C(C)C)C12C(=O)Oc1cc(OC)ccc1C2=O (stereo partly shown)	IC50	µM	181
CC(C)=CCC/C(C)=C/CC/C(C)=C/Cc1c(O)c2ccc(O)cc2oc1=O	IC50	µM	201
CC(C)=CCC/C(C)=C/CC/C(C)=C/CCC(=O)c1ccc(O)cc1O	IC50	µM	23.5
